Assay: NCI Yeast Anticancer Drug Screen. Data for the sgs1 mgt1 strain (AID 161)
Conditions: S. cerevisiae sgs1 mgt1 strain, at 50.0 µM (retest, dose inferred, filed as 5.0)
The panel holds about 79,000 compounds, 15% with a hit somewhere; the sample as a whole holds those more often. Active and inactive are the calls of the source. No stated cut-off is given here; in the data, active means growth inhibition above about 70%; inactive means the rest.
Could you please pick one outcome from this set? TRUE = active, FALSE = inactive

molecule | class_name
COc1ccccc1[As]=[As]c1ccccc1OC (configuration not stated) | TRUE

I would be grateful if you could indicate the recorded call for "COc1c(Cl)[c]([Hg][O]C(C)=O)c(NCC(C)=O)c(OC)[c]1[Hg][O]C(C)=O" . TRUE
